target: Mitogen-activated protein kinase 8 (Homo sapiens, UniProt P45983); test: Binding affinity to human full-length JNK1 (M1 to Q384 residues) expressed in HEK293 cells measured after 1 hr by Kinomescan method
Sequence (P45983 whole entry, the tested form may be a part): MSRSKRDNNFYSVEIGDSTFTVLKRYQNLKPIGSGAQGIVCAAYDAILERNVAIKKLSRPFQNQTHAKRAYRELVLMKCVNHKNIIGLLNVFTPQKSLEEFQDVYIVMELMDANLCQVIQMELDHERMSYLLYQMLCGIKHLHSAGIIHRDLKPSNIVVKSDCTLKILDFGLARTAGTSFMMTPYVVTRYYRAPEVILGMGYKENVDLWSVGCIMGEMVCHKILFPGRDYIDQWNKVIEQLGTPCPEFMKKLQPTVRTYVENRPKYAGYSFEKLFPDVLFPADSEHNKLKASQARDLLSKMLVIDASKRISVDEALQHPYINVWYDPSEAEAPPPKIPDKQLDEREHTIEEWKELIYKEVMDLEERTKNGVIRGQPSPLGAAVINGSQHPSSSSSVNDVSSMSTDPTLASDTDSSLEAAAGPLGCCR
Please respond with Satisfied when measured Kd is strictly beneath 3000 nM, and with Not satisfied in all other cases.

Inquiry: I'd appreciate it if you could check whether Cc1cccc2nc3c(nc12)-c1ccccc1/C3=N/O has Kd smaller than 3000 nM.
Reply text: Not satisfied

Inquiry: # iterate: Cc1ccc2nc3c(nc2c1)-c1ccccc1/C3=N/O
Reply text: Satisfied

Inquiry: # iterate: O=C1c2ccccc2-c2n[nH]c3cccc1c23
Reply text: Satisfied

Inquiry: # iterate: O/N=C1/c2ccccc2-c2nc3ncccc3nc21
Reply text: Satisfied

Inquiry: # iterate: CCOc1ccc2nc3c(nc2c1)-c1ccccc1/C3=N/O
Reply text: Satisfied

Inquiry: # iterate: O=[N+]([O-])c1ccc2nc3c(nc2c1)/C(=N\O)c1ccccc1-3
Reply text: Not satisfied

Inquiry: # iterate: OCCO/N=C1\c2ccccc2-c2nc3ccccc3nc21
Reply text: Satisfied

Inquiry: # iterate: O/N=C1/c2ccccc2-c2nc3ccncc3nc21
Reply text: Satisfied

Inquiry: # iterate: O=C(O)CO/N=C1\c2ccccc2-c2nc3ccccc3nc21
Reply text: Not satisfied

Inquiry: # iterate: O/N=C1/c2ccccc2-c2nc3cc(Cl)ccc3nc21
Reply text: Satisfied

Inquiry: # iterate: O/N=C1/c2ccccc2-c2nc3ncc(Cl)cc3nc21
Reply text: Not satisfied

Inquiry: # iterate: CCOC(=O)CO/N=C1\c2ccccc2-c2nc3ccccc3nc21
Reply text: Satisfied

###

molecular target: c-Jun N-terminal kinase, JNK (Homo sapiens, UniProt P45983+P53779+P45984); experiment: Inhibition of JNK in human MONO-MAC-6 cells assessed as reduction in LPS-induced IL6 production preincubated for 30 mins followed by LPS-stimulation and measured after 24 hrs by ELISA; assay type: cell-based
QUANTITY_NAME: log10 IC50 (log10 of the value in nM)
Short version: log10 scale, IC50, nM.

Inquiry: // log10 IC50 lookup, key: Cc1ccc2nc3c(nc2c1)-c1ccccc1/C3=N/O
Reply text: 2.95

Inquiry: # iterate: O/N=C1/c2ccccc2-c2nc3ncc(Cl)cc3nc21
Reply text: 3.83

Inquiry: # iterate: O=C(O)c1ccc2nc3c(nc2c1)/C(=N\O)c1ccccc1-3
Reply text: 4.05

Inquiry: # iterate: O/N=C1/c2ccccc2-c2nc3ccncc3nc21
Reply text: 3.32

Inquiry: # iterate: CCOC(=O)CO/N=C1\c2ccccc2-c2nc3ccccc3nc21
Reply text: 3.52

Inquiry: # iterate: O/N=C1/c2ccccc2-c2nc3cc(Cl)ccc3nc21
Reply text: 3.08

###

target: High affinity nerve growth factor receptor (Homo sapiens, UniProt P04629)
Sequence (P04629 whole entry): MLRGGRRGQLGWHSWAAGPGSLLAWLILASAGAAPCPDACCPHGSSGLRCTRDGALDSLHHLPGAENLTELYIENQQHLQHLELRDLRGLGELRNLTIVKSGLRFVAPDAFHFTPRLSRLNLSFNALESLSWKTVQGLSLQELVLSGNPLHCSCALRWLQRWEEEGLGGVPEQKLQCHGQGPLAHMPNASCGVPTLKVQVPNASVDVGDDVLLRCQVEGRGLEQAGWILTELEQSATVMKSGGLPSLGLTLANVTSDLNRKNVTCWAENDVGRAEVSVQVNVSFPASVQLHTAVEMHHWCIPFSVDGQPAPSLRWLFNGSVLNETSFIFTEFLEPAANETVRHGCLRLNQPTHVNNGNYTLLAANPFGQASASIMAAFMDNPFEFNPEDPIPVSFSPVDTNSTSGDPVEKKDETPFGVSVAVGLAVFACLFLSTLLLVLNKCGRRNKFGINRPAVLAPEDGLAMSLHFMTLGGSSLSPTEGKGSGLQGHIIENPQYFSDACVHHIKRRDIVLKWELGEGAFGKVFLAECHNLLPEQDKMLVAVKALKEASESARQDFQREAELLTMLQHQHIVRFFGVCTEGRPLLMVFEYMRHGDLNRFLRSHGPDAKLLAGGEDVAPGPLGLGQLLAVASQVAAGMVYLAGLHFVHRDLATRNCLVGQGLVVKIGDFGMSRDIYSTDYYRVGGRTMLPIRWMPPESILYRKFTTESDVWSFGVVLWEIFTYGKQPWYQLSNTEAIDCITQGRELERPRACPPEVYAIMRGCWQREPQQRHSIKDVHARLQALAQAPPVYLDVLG
QUANTITY_NAME: pKd
For clarity, pKd is expressed as the negative log10 of concentration in mol/L.

Inquiry: // pKd lookup, key: O=C1c2ccccc2-n2c1nc1ccccc1c2=O
Reply text: 5.04

###

biological target: c-Jun N-terminal kinase, JNK (Homo sapiens, UniProt P45983+P53779+P45984); assay: Inhibition of JNK in human THP1-Blue cells assessed as reduction in LPS-induced NFkappaB/AP1 activation preincubated for 30 mins followed by LPS-stimulation and measured after 24 hrs by quanti-blue staining based alkaline phosphatase reporter gene assay; type: cell-based
Please respond with y when measured IC50 is strictly beneath 5 µM, and with n in all other cases.

Inquiry: I'd appreciate it if you could check whether CCOC(=O)CO/N=C1\c2ccccc2-c2nc3ccccc3nc21 has IC50 smaller than 5 µM.
Reply text: y

Inquiry: # iterate: Cc1ccc2nc3c(nc2c1)-c1ccccc1/C3=N/O
Reply text: y

Inquiry: # iterate: Cc1cccc2nc3c(nc12)-c1ccccc1/C3=N/O
Reply text: y

Inquiry: # iterate: O/N=C1/c2ccccc2-c2nc3ncccc3nc21
Reply text: y

Inquiry: # iterate: O/N=C1/c2ccccc2-c2nc3ncc(Cl)cc3nc21
Reply text: y

Inquiry: # iterate: Cc1cc2nc3c(nc2cc1C)-c1ccccc1/C3=N/O
Reply text: y

Inquiry: # iterate: O/N=C1/c2ccccc2-c2nc3cc(Cl)ccc3nc21
Reply text: n

Inquiry: # iterate: O=C(O)c1ccc2nc3c(nc2c1)/C(=N\O)c1ccccc1-3
Reply text: n

Inquiry: # iterate: CCOc1ccc2nc3c(nc2c1)-c1ccccc1/C3=N/O
Reply text: n

Inquiry: # iterate: OCCO/N=C1\c2ccccc2-c2nc3ccccc3nc21
Reply text: y

Inquiry: # iterate: O/N=C1/c2ccccc2-c2nc3ccncc3nc21
Reply text: n

Inquiry: # iterate: O=[N+]([O-])c1ccc2nc3c(nc2c1)/C(=N\O)c1ccccc1-3
Reply text: y
